# ASSAYED_SYSTEM: PDGF-BB (Homo sapiens) (UniProt P01127)
# Sequence (P01127 82-190): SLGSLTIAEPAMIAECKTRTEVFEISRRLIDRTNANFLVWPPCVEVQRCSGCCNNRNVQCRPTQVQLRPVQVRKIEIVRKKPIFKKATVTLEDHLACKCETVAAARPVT
# ASSAY: filter
# MEASUREMENT_SETUP: 2'-OMe A,C,U; 2'-OH G; approximately 950 nM or higher; naive pool also binds PDGF-BB
MEASURE_NAME: Kd

// fetch PDGF-BB (Homo sapiens) (UniProt P01127) Kd for GGGNGNGGNGNGNNCGUUCUNCNNNNNNNNNNNNNNNNNNNNNNNNNNNNNNCGCUGUCGNUCGNUCGNUCGNUG [PDGF-BB rGmH round 10 pool]
> 0.95 µM

----------
# Test system: IgE (Homo sapiens)
# ASSAY: filter
# MEASUREMENT_SETUP: 2'-OMe C,U; 2'-OH A,G; approximately 500 nM or higher
pKd: −log10 of the molar value.
MEASURE_NAME: pKd

// fetch IgE (Homo sapiens) pKd for GGGAGAGGAGAGAACGUUCUACNNNNNNNNNNNNNNNNNNNNNNNNNNNNNNCGCUGUCGAUCGAUCGAUCGAUG [IgE rRmY round 6 pool]
< 6.30

----------
# ASSAYED_SYSTEM: IFN-gamma (Homo sapiens)
# Sequence: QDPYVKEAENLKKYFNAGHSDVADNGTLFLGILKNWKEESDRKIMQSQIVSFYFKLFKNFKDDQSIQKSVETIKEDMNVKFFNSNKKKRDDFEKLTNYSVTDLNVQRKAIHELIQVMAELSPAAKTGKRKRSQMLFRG
# ASSAY: filter
# MEASUREMENT_SETUP: dRmY: deoxy A,G; 2'-OMe C,U; 1x DPBS, tRNA, ssDNA, BSA
MEASURE_NAME: Kd
Answer by giving the amount and then stating its unit.

SEQUENCE_TEXT	ASSAYED_SYSTEM	Kd
GGGAGAGGAGAGAACGUUCUACNNNNNNNNNNNNNNNNNNNNNNNNNNNNNNGGUCGAUCGAUCGAUCAUCGAUG [IFN-gamma round 10 dRmY pool, normal stringency]	IFN-gamma (Homo sapiens)	605 nM

Lab note: next sequence to report on.
Kd for GGGAGAGGAGAGAACGUUCUACNNNNNNNNNNNNNNNNNNNNNNNNNNNNNNGGUCGAUCGAUCGAUCAUCGAUG [IFN-gamma round 12 dRmY pool, normal stringency] ?
445 nM

Data credit: patent US20050037394
